# Assay procedure: folding stability dG unfold from chymotrypsin proteolysis; higher = more stable
If the reported folding stability dG unfold equals or exceeds 3 kcal/mol, assign 1.0. If not, assign 0.0.

Known results for sequences:
SAGSKELVIVEKDEPVEGETLDYTNGKKKKFPKKVPVVKEIVLPKNSPEAEKIAKELSPPNVKVEILAKSAG [r5_468_JUSTAS]
0.0
SAGGSAGGSSMPFLNPDGHPAVLVEVDGSTGSLSVELRGPDGRPVLQVSVSVSGPATVTVRVGSAGGSAGGS [r12_960_JUSTAS]
0.0

Assess whether reported folding stability dG unfold for SAGGSADPEKVKLIEVEVEVHVEYDPEKGTYTVKAEFPDLTLSFEVPADSIHPDEKFKAPVLILVLSAGGSA [r15_190_TrMRF] sits at 3 kcal/mol or higher.
1.0

Assess whether reported folding stability dG unfold for SAGGNWTIEVEIEENPDGPYRITIRYRAPNGEEHKVTMWFDPDNGTFPIKLPGPLPPDQIEDIEIWPSAGGS [r16_95_TrROS] sits at 3 kcal/mol or higher.
1.0

Assess whether reported folding stability dG unfold for SAGGSAGGSAPPDEGQKWVPVTFPIEFPLPDGNKVKIPIDFWYPKEDGKPIAMQIEWWAKNSAGGSAGGSAG [r3_484_TrROS] sits at 3 kcal/mol or higher.
0.0

Assess whether reported folding stability dG unfold for SAGEEPPEVTIKVVEKDGKLVIEVEYNGKTLTITLEDGEKIEIKFPEGMSEEELLEEAKRLAKELAEKSAGG [r19_170_TrROS_Hall] sits at 3 kcal/mol or higher.
0.0

Assess whether reported folding stability dG unfold for SKIKPGDVVTIMFPFPPGDPDQIREWAYWIARKLGPDVKVKSVEYNPNDPRYVQIEVRVPGGKITIHIMWSA [r9_1079_TrROS] sits at 3 kcal/mol or higher.
1.0

Assess whether reported folding stability dG unfold for SAGGSAGGSAMSVVVKYTVLLTDPVTGKTTVVPVTATLPVSDGTAKTIEEIVAEHPNYEILESAGGSAGGSA [r18_267_JUSTAS] sits at 3 kcal/mol or higher.
0.0

* * *

# Assay procedure: folding stability dG unfold (combined trypsin and chymotrypsin); higher = more stable
Property label: folding stability dG unfold

The following sequences have reported results that may help.
SAGGSAGGSAGGGAKPNQPVKVKIKYELLREEKELLPDGSVKTKKEVKVEIEGYEDADFKSAGGSAGGSAGG [r7_919_TrMRF]
< -1 kcal/mol
SAMTIPVLVEGDIEKLEEREEEIKREVAEELGLPEDLKDLKVEVLEIEPLPDEDGKPTKVRMLVEVHLRSAG [r14_736_TrMRF]
< -1 kcal/mol

Next item in the queue.
# get_value(readout='folding stability dG unfold', item= SAGGSAGGSQKITIEWHKPGAWRIRIPGNGRERHLPMDKPLEEIANTAEKKFPNIPVEIERVKSAGGSAGGS [r12_423_TrROS] )
< -1 kcal/mol

* * *

# Assay procedure: folding stability dG unfold from trypsin proteolysis; higher = more stable
Property label: folding stability dG unfold (kcal/mol)
Provide only the numeric value, understood in kcal/mol.

# get_value(readout='folding stability dG unfold', item= SAGGSAGGSAGPLTLTATFLSDYNYAVTVTLTFEVDENGNLSVSGEVEIRPVPPLGPGNASAGGSAGGSAGG [r11_728_TrMRF] )
2.42

* * *

# Assay procedure: folding stability dG unfold from trypsin proteolysis; higher = more stable
Attribute: folding stability dG unfold

The following sequences have reported results that may help.
SAEPTLAEATNDPATGTATANFPLENLPPDYRVLAVNLETGEVTEFPPDGEVTITAPEGPVLVKLFWKGSAG [r14_134_TrMRF]
0.608 kcal/mol
SAGGLTWEEAREIAEEIANMEVPSPNGMPMKVKVDIEIDPPNGYFRVDVKVEMPGKPQKFPLEIPLKSAGGS [r16_812_TrROS]
0.607 kcal/mol

Next item in the queue.
# get_value(readout='folding stability dG unfold', item= SAGGSADIKIIKLPEKNELVILVPGEFDENVPLVLHDEGGPSWEVVDARVERVGDDLIITAKVRKSSAGGSA [r15_838_TrMRF] )
0.594 kcal/mol

* * *

# Assay procedure: folding stability dG unfold from chymotrypsin proteolysis; higher = more stable
Attribute: folding stability dG unfold
Provide only the numeric value, understood in kcal/mol.

The following sequences have reported results that may help.
SAGGSAGGSADNPDDKKKQKPKPEIKVKVEWVVIPNGFLIFEITIAGGITLTIIIPFPPNMFSAGGSAGGSA [r18_192_TrROS]
3.09
SAGGSSSLAIITIKPKEIKSYYNPNNPVVVSEMEFEVDITIYSDNEISPEKVKELIEEIEKAFPGIKSAGGS [r8_306_TrMRF]
2.88
SAGGSAGGSAGEAAIEAAIAANSPDKDATVALPGGETVRLKFTRDPKVPTLLSLDVEREPPRSAGGSAGGSA [r18_202_JUSTAS]
-0.61
SAGGGSFINISKKEIAEAISKLIGKDYPLEDVKVSVTTLPENKTIINVEIKLPNTTETLYIPILFDVSAGGS [r16_42_TrMRF]
1.7

# get_value(readout='folding stability dG unfold', item= SAGGSAGGMLVFVVKKIKPGMSDEQKKALEKLVKPGDVIELSPEEIERLAKLPWIQEIKVYPLPSAGGSAGG [r6_381_TrROS_Hall] )
0.361

# get_value(readout='folding stability dG unfold', item= SAGGSAGGSAGGLEEIRENGEALVFYPDGRVYRVDLKTGKITPPPGFKPENIVRVVFVKKSAGGSAGGSAGG [r7_566_TrMRF] )
0.0292

# get_value(readout='folding stability dG unfold', item= SAGGFEFKAVKLKKNEEKEGELGGAKVRYVSDNKGPVYQVVEFGPEYRALAKVEGDKVELVAVEEGNPSAGG [r13_92_TrMRF] )
0.00343

# get_value(readout='folding stability dG unfold', item= SAGGSAGGSAGNLKPVSGGGVLKVEVKDPNTDKKETYLVPPNKPDVVLELAKDGYEVEVSSAGGSAGGSAGG [r11_1006_TrMRF] )
0.227

# get_value(readout='folding stability dG unfold', item= SAGGSAGGSAGMITIYAPPSVPVEEVREEVKEKIKKENPNDPKEVKGVEVDPNGSLEELESAGGSAGGSAGG [r17_43_JUSTAS] )
-0.655

# get_value(readout='folding stability dG unfold', item= SAGGSAGGSAGGGVGIAEISFDPETQTVTIKAYNPETEEITEITIPVTNPLPLDLSDITSAGGSAGGSAGGS [r10_331_TrMRF] )
0.858

# get_value(readout='folding stability dG unfold', item= SAGGSAGGSAGGKKPKVKVIKLTLTVTKLTEKDGKLTLEKKTITLTAVIDPETGKIHLLSAGGSAGGSAGGS [r10_533_TrROS_Hall] )
3.5

# get_value(readout='folding stability dG unfold', item= SMKKNYKIKIEIIDIKIYNKNIPKNKPKYITIKAKITIYYKNKPYKYTIEIKYKIYNGKIYIIGSKIKPESA [r9_270_TrMRF] )
3.76

* * *

# Assay procedure: folding stability dG unfold from trypsin proteolysis; higher = more stable
Property label: folding stability dG unfold (kcal/mol)
Provide only the numeric value, understood in kcal/mol.

The following sequences have reported results that may help.
SAGMIEINNVTPNYVMIKIWNPDNGKKWEIPIQYERDNGKPYSKDKALEEIKDIAKEFYPDFDIEVEPVSAG [r5_293_TrROS]
0.0269
SAGGMSKEEARKAIENPADATYTFTITTRPSTPTPSSTTTTVTAKVTDPDAFLDAVPEGHSVTVTASSAGGS [r16_116_JUSTAS]
-0.465

Next item in the queue.
# get_value(readout='folding stability dG unfold', item= SMVEIKVEPEKSIIKATLTLKDKTVEEIKQLAKEYFEKLGYKIKVEVKEVKTFEDSVTLKFEIKVPKGLVSA [r9_347_JUSTAS] )
1.94

* * *

# Assay procedure: folding stability dG unfold from chymotrypsin proteolysis; higher = more stable
Property label: folding stability dG unfold (kcal/mol)
Provide only the numeric value, understood in kcal/mol.

SAGGSAGGSMTITIKLDNVKEVEVKFNPETNVVEIKVKVDGKEYVIRMEFVDGKIYITEIKPLSAGGSAGGS [r20_60_TrROS_Hall]
3.68

# get_value(readout='folding stability dG unfold', item= SAGGSAGGSNGDKKPPVKWEWVMIEIEIPPDDIDEIAEEFPGFSVNYERDNGHYRVNIMIPVPYSAGGSAGG [r6_686_TrROS] )
1.94

# get_value(readout='folding stability dG unfold', item= SAGGSAGGSAGGENDWIPIRMEMTFKLPNGVKITIKMEMWVQPDGDILGMRIHDIEIEVPSAGGSAGGSAGG [r7_356_TrROS] )
4.75

# get_value(readout='folding stability dG unfold', item= MVLKVTIEITVTHPANPGKTEKLTIVVEAPTLEEALAAALEEIRRRLGLPPGAKVTVKVTVELVELPEEDLS [r1_149_TrROS_Hall] )
5.63

# get_value(readout='folding stability dG unfold', item= SAGGSAGGSAGGVEIVIMFPRGMPPEQFAKMIAKWLRRQGLPPNVKVDIKIIPIDPDDMSAGGSAGGSAGGS [r10_746_TrROS] )
3.35

# get_value(readout='folding stability dG unfold', item= SAGGSAGGSMKNIKEIKVERRKLPNGGEYYVVTITYPDGKEIIIEMSPEETLEEALEKAKELSSAGGSAGGS [r12_1047_JUSTAS] )
3.01

# get_value(readout='folding stability dG unfold', item= SAGGSAPPIEIEIDKWERDPENGYVYATVKIKLPGKKIEIPIWMDDPPGQAENQVKMLAENIARQLSAGGSA [r15_979_TrROS] )
1.39

# get_value(readout='folding stability dG unfold', item= SAGGPTAPAGGPLLAPVPVVVPVPVTLTFPNLTPEQAEALAEYFRSLGAEVSYDSATGTLTVRDYRTSAGGS [r16_765_TrMRF] )
3.89
